Test: Example 18 Part 2: multiple dose PK (20 mg QID) of 3,4-DAP and 3-N-acetyl metabolite in slow and fast acetylators
Format: in vivo, human
Conditions: both sexes, human, plasma, oral, 20 mg, Day 1, Dose 3, fast acetylators, 20 mg QID; read-out: Mean Cmax
assayMetric: Cmax

Item: Nc1ccncc1N | Cmax: 16.8 ng/mL

---

Experiment: Food-effect crossover study, plasma and urine PK after single 20 mg amifampridine phosphate in healthy subjects (Examples 10, 12)
Type: in vivo, human
Conditions: human, plasma, oral, 20 mg, fasted; read-out: Tmax, individual range
assayMetric: Tmax

Input CC(=O)Nc1cnccc1N [3-N-acetyl amifampridine, N-(4-aminopyridin-3-yl)acetamide] . Output Tmax: 0.75 to 2 h
